Biological target: bradykinin, N-bromoacetylated (BrBK) (UniProt P01042 P01042:381-389)
Sequence (P01042 whole entry, looked up, one chain of several): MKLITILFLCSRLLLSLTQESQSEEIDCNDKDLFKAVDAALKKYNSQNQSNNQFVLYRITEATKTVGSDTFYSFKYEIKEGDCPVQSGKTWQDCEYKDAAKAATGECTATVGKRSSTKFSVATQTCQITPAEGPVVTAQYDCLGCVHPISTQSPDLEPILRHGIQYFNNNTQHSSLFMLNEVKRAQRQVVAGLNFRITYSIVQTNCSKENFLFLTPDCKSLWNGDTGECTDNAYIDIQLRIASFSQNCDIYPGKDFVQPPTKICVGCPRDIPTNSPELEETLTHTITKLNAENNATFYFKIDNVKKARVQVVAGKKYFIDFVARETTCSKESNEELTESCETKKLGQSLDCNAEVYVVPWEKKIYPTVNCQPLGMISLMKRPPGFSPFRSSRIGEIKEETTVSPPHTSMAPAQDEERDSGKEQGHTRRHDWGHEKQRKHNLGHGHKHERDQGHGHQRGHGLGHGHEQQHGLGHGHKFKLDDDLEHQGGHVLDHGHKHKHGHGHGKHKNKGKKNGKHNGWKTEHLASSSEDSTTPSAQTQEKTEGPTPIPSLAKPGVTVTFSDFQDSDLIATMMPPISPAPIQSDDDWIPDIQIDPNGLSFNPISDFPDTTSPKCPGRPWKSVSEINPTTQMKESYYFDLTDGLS
Assay: kobs covalent reaction, APM gel, 0 C, 5 mM MgCl2
Settings: protein: synthetic; tags: synthetic peptide, N-terminal bromoacetyl
Description: Reverse transcription and polymerase chain reaction were carried out as reported by Schneider et al., (FASEB, 7, 201 (1993)). […] Reactions were quenched on ice with 235 mM sodium thiosulfate and run on a denaturing 7 M urea 8% polyacrylamide APM gel. $kobs$ values were determined as the negative slope of the linear range of data points from plots relating the concentration of unreacted GMPS- RNA vs. time. […]
PROPERTY MEASURED: activity (s⁻¹)
Give bare numbers, in s⁻¹.

What does the data say about its activity? Entry: 12.46 (ssRNA, 5'-GMPS) RNA: GGGAGCUCAGAAUAAACGCUCAAUGGACACAACUCCAUUCAUCCCGGGACCGCUGUUCGACAUGAGGCCCGGAUCCGGC
0.00067

The following binders each have a reported value; give each one's activity.
1. 12.3 (ssRNA, 5'-GMPS) RNA: GGGAGCUCAGAAUAAACGCUCAACAUCACAACUUGUUGUCCUGGUCGAUGUCCUUCGACAUGAGGCCCGGAUCCGGC
2. 10.28 (ssRNA, 5'-GMPS) RNA: GGGAGCUCAGAAUAAACGCUCAACGUUUAGGACUCCCCCGUUCGUCGAGCGAAUUCGACAUGAGGCCCGGAUCCGGC

[0.00075, 0.0018]

The following binders each have a reported value; give each one's activity.
1. 12.9 (ssRNA, 5'-GMPS) RNA: GGGAGCUCAGAAUAAACGCUCAAGUGGAGCUUCGUGACUUGGUCGGAGCCGUGUUCGACAUGAGGCCCGGAUCCGGC
2. 12.4 (ssRNA, 5'-GMPS) RNA: GGGAGCUCAGAAUAAACGCUCAACGAAUCAAUGCGCGGAUCUCAGGAUAUUCGUUCGACAUGAGGCCCGGAUCCGGC
3. 12.14 (ssRNA, 5'-GMPS) RNA: GGGAGCUCAGAAUAAACGCUCAAACGUCAUUCCGAGUCGGGUUCGUUCCCCGCUUCGACAUGAGGCCCGGAUCCGGC

1. 0.00128
2. 0.0017
3. 0.0017
